Experiment summary: small-molecule binders of probe aInhba, primary screen, biochemical, small-molecule microarray, 635/667 nm fluorescence (AID 1148);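 note: score merges 667nm spot fluorescence with signal-to-noise for antibody binding to printed compounds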
Conditions used: higher = more signal
Assay endpoint: composite z-score
Answer with the value's number alone.

Known composite z-score results, listed for orientation:
INSERT INTO measurements (compound, reported_measurement) VALUES
  ('CN1C(=O)C2C=CC(C(O)c3c(F)cccc3Cl)N(Nc3ccccc3)C2C1=O (stereo not drawn)', 0.0374),
  ('Cc1ccc(S[C@]2(C(=O)NCC(C)C)CC(=O)N(Cc3ccccc3Cl)[C@@H]2c2ccc(CO)cc2I)cc1', -0.176),
  ('Cc1c(NC(=O)/C(C#N)=C/C=C/c2ccc(N(C)C)cc2)c(=O)n(-c2ccccc2)n1C', 0.264),
  ('Cc1ccc(S[C@]2(C(=O)NC(C)C)CC(=O)N(Cc3ccccc3C(F)(F)F)[C@@H]2c2ccc(CO)cc2I)cc1', -0.239),
  ('C=C[C@@H](COC(C)=O)NS(=O)(=O)c1ccc(Br)cc1', -0.0589),
  ('C=C(/C=C/CNS(=O)(=O)c1ccc(C)cc1)[C@H](O)[C@H]1CCCN1S(=O)(=O)c1ccccc1[N+](=O)[O-]', -0.0791),
  ('CC(C)C(CO)N1C(=O)[C@]2(C)C3C(=O)OCCC/C=C\[C@H]3OC23C=CCN(c2ccc(Cl)cc2)C(=O)[C@@H]13 (stereo partly drawn)', -0.128);

Shift focus to the following entry.
Input: Suppose we examine the compound COCCOC(=O)N1C(=O)[C@@]2(c3ccccc31)[C@H](c1ccc(OCCO)cc1)N1[C@H](c3ccccc3)[C@H](c3ccccc3)OC(=O)[C@H]1[C@@H]2C(=O)Nc1nc2ccccc2s1 ; what composite z-score value has been reported?
Output: 0.239
